Molecular target: native CB1 receptors (Rattus norvegicus)
Assay: CB1 receptor rat binding assay ([3H]SR141716A, rat brain membranes)
Conditions: rat brain membranes, [3H]SR141716A; read-out: Binding rat pKi (converted)

molecule	Ki [nM]
C[C@@H]1CCC[C@H](C)N1NC(=O)c1ccc2c(c1)N=C(c1cccc(F)c1)c1ccccc1S2 [drawing 1261]	20
CCCNC(=O)c1ccc2c(c1)N=C(c1ccc(Cl)cc1F)c1ccccc1S2 [drawing 1276]	20
CCCC1=Nc2cc(C(=O)NC3CCCC(C)C3C)ccc2Sc2ccccc21 (centres unmarked) [drawing 1284]	20
CCCNC(=O)c1ccc2c(c1)N=C(c1cccc(F)c1)c1ccccc1S2 [drawing 1286]	20
O=C(NCCCc1ccccc1)c1ccc2c(c1)N=C(c1ccc(Cl)cc1)c1ccccc1S2 [drawing 1434]	6.31
CCCC1=Nc2cc(C(=O)NCCN(CC)c3ccccc3)ccc2Sc2ccccc21 [drawing 1292]	20
COc1cccc(C2=Nc3cc(C(=O)NCCCC(F)(F)F)ccc3Sc3ccccc32)n1 [drawing 1186]	10
Cc1csc(CNC(=O)c2ccc3c(c2)N=C(c2ccsc2)c2ccccc2S3)c1 [drawing 1313]	3.16
N#Cc1ccc(C2=Nc3cc(C(=O)NNCc4ccccc4)ccc3Sc3ccccc32)cc1 [drawing 1538]	100
O=C(NN1CCCCCC1)c1ccc2c(c1)N=C(c1ccc(Cl)cc1)c1ccccc1S2 [drawing 1463]	7.94
CC(C)CCNC(=O)c1ccc2c(c1)N=C(c1ccc(F)cc1)c1ccccc1S2 [drawing 1330]	3.98
O=C(NCCc1ccccn1)c1ccc2c(c1)N=C(c1ccc(Cl)cc1F)c1ccccc1S2 [drawing 1398]	39.8
O=C(NCc1cccc(Cl)c1)c1ccc2c(c1)N=C(c1cccc(Cl)c1)c1cc(F)ccc1S2 [drawing 1375]	5.01
CCCCNC(=O)c1ccc2c(c1)N=C(c1ccc(Cl)cc1)c1ccccc1[S+]2[O-] (centres unmarked) [drawing 1205]	12.6
O=C(NCCc1ccc(Cl)cc1)c1ccc2c(c1)N=C(c1ccccc1F)c1ccccc1S2 [drawing 1228]	15.8
O=C(NCc1ccccc1Br)c1ccc2c(c1)N=C(N1CCCCC1)c1ccccc1S2 [drawing 1275]	20
O=C(NN1CCCCC1)c1ccc2c(c1)N=C(N1CCCCC1)c1ccccc1S2 [drawing 1397]	39.8

====

Molecular target: native CB1 receptors (Rattus norvegicus, UniProt P20272)
Sequence (P20272 whole entry): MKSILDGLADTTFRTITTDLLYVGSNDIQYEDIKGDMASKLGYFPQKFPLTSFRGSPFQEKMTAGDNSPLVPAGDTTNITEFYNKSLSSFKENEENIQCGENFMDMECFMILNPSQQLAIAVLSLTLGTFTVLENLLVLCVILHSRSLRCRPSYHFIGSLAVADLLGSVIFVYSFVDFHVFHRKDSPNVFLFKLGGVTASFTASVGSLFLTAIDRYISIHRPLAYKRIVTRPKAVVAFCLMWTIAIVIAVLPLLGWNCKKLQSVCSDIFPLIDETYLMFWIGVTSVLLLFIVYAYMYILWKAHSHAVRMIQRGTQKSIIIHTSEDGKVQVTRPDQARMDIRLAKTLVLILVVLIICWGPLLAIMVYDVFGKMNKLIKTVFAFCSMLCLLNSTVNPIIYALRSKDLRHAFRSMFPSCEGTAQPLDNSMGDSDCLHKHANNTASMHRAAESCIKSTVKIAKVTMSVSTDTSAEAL
Test: CB1 receptor rat binding assay ([3H]SR141716A, rat brain membranes)
Settings: rat brain membranes, [3H]SR141716A
Parameter Binding rat Inh %: see the listing below.
measured.attribute: Binding rat Inh %

compound	result.value
O=C(NC1CCC(F)(F)CC1)c1ccc2c(c1)N=C(c1ccsc1)c1ccccc1S2	92%
O=C(NCCC(F)(F)F)c1ccc2c(c1)N=C(c1ccsc1)c1ccccc1S2 [drawing 1442]	88%
Cc1ccc(CNC(=O)c2ccc3c(c2)N=C(c2ccc(Cl)cc2)c2ccccc2S3)o1 [drawing 1416]	88%
CCCCNC(=O)c1ccc2c(c1)N=C(c1cccc(Cl)c1)c1cc(Cl)ccc1S2 [drawing 1235]	89%
O=C(NCCCC(F)(F)F)c1ccc2c(c1)N=C(c1ccc(Cl)s1)c1ccccc1S2 [drawing 1176]	91%
CCCCNC(=O)c1ccc2c(c1)N=C(c1ccc(Cl)cc1)c1cc(F)ccc1S2 [drawing 1500]	90%
COc1cccc(C2=Nc3cc(C(=O)NCc4ccc(C)o4)ccc3Sc3ccccc32)n1 [drawing 1458]	90%

====

Some compounds, each annotated with its measured Emax.
Biological target: CB1 (mutant) (Homo sapiens)
Experiment: R-SAT functional receptor assay, CB1 (mutant, truncated after amino acid 417)
Type: cell-based
Settings: Appendix A; R-SAT CB1; receptor form not stated; relative to SR141716 (100%); read-out: % Inhibition
measured.attribute: Emax (%)

compound	unit.text	result.value
CC(C)CNC(=O)c1ccc2c(c1)N=C(c1ccc(Cl)s1)c1ccc(F)cc1S2 [drawing 703]	%	117
CCCC1=Nc2cc(C(=O)NCC(C)c3ccccc3)ccc2Sc2ccccc21 (stereo not drawn) [drawing 735]	%	104
CCCC1=Nc2cc(C(=O)NCCN(CC)CC)ccc2Sc2ccccc21	%	131

====

Target: human CB1 receptor (Homo sapiens, UniProt P21554)
Sequence (P21554 whole entry): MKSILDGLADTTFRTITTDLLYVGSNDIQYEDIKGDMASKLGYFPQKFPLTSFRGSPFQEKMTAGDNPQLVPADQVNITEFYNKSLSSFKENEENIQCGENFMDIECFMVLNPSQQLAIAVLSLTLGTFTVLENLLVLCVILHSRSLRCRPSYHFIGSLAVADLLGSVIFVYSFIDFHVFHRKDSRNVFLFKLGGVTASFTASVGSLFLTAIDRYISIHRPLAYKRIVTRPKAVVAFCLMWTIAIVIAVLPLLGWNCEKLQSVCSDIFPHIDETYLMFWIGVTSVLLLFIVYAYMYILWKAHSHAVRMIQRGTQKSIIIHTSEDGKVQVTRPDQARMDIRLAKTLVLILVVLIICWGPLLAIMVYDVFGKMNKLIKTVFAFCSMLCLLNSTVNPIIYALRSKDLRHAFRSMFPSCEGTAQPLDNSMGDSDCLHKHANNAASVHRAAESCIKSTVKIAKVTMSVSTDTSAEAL
Experiment: CB1 receptor human binding assay ([3H]SR141716A, transfected HEK-293 T membranes)
Conditions: human CB1, HEK-293 T membranes
measured.attribute: Binding Human Inh % (%)

compound	result.value
O=C(NN1CCCCCC1)c1ccc2c(c1)N=C(c1cccc(F)c1)c1ccccc1S2 [drawing 1215]	103
O=C(NCCCC(F)(F)F)c1ccc2c(c1)N=C(c1ccc(Cl)cc1F)c1ccccc1S2 [drawing 1175]	92
O=C(NC1CCCCC1)c1ccc2c(c1)N=C(c1ccc(F)cc1)c1ccccc1S2 [drawing 1202]	87
CCCNC(=O)c1ccc2c(c1)N=C(c1ccc(Cl)cc1)c1ccccc1S2 [drawing 1210]	74
O=C(NN1CCCCCC1)c1ccc2c(c1)N=C(c1cccc(Cl)c1)c1ccccc1S2 [drawing 1209]	94
CCCCNC(=O)c1ccc2c(c1)N=C(c1ccc(Cl)s1)c1ccccc1S2 [drawing 1191]	90
O=C(NCCCC(F)(F)F)c1ccc2c(c1)N=C(c1ccc(Cl)s1)c1ccccc1S2 [drawing 1176]	87
COc1cccc(C2=Nc3cc(C(=O)NCCCC(F)(F)F)ccc3Sc3ccccc32)n1 [drawing 1186]	84

====

Biological target: CB1 (mutant) (Homo sapiens, UniProt P21554)
Sequence (P21554 1-417, change not shown): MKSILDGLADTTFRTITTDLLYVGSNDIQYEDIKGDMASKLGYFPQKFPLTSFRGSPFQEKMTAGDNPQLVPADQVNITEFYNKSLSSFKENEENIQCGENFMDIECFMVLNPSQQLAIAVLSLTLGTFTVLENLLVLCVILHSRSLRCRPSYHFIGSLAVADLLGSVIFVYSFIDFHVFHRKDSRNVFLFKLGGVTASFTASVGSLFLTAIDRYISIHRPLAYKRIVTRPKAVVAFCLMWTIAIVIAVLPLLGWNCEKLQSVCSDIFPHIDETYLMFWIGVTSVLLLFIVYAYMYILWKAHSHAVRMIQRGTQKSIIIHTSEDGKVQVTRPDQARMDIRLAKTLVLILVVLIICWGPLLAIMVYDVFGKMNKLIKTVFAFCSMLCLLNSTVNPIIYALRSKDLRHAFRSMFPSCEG
Assay: R-SAT functional receptor assay, CB1 (mutant, truncated after amino acid 417)
Type: cell-based
Conditions: Appendix A; R-SAT CB1; receptor form not stated; relative to SR141716 (100%); read-out: % Inhibition
Measured Emax accompanies every entry in the list below.
measured.attribute: Emax (%)

molecule	target.or.test.system	measured.attribute	result.value
CCCCNC(=O)c1ccc2c(c1)N=C(c1ccc(Cl)cc1)c1ccccc1[S+]2[O-] (stereo not shown) [drawing 666]	CB1 (mutant) (Homo sapiens, UniProt P21554)	Emax	97
O=C(NCc1cccnc1)c1ccc2c(c1)N=C(c1ccc(Br)cc1)c1ccccc1S2 [drawing 1007]	CB1 (mutant) (Homo sapiens, UniProt P21554)	Emax	106
Cc1ccc(N2CCN(C(=O)c3ccc4c(c3)N=C(CC(C)C)c3ccccc3S4)CC2)c(C)c1	CB1 (mutant) (Homo sapiens, UniProt P21554)	Emax	105
CC(C)CNC(=O)c1ccc2c(c1)N=C(c1ccc(Cl)cc1F)c1ccccc1S2 [drawing 613]	CB1 (mutant) (Homo sapiens, UniProt P21554)	Emax	110

====

Target: CB1 (mutant) (Homo sapiens)
Assay: R-SAT functional receptor assay, CB1 (mutant, truncated after amino acid 417)
Type: cell-based
Conditions: Appendix A; R-SAT CB1; receptor form (mutant or wild-type) not stated

compound	target.or.test.system	pIC50
CON(C)C(=O)c1ccc2c(c1)N=C(c1ccccn1)c1ccccc1S2	CB1 (mutant) (Homo sapiens)	1.0
CCONC(=O)c1ccc2c(c1)N=C(c1ncccc1C)c1ccccc1S2	CB1 (mutant) (Homo sapiens)	1.0
CC(NC(=O)c1ccc2c(c1)N=C(C1CCCCC1)c1ccccc1S2)c1ccccc1 (stereo not drawn) [drawing 674]	CB1 (mutant) (Homo sapiens)	7.2

====

Parameter: IC50. Scope: all listed entries.
Target: CB1 (mutant) (Homo sapiens, UniProt P21554)
Test: R-SAT functional receptor assay, CB1 (mutant, truncated after amino acid 417)
Assay type: cell-based
Conditions: Appendix A; R-SAT CB1; receptor form (mutant or wild-type) not stated; read-out: pIC50 (converted)
measured.attribute: IC50 (nM)

compound	unit.text	result.value
CCCC1=NC2=C(CCC(C(=O)NCCN(CC)CCNc3cc(Cl)ccc3C)=C2)Sc2ccccc21	nM	158
CCCNC(=O)c1ccc2c(c1)N=C(c1ccccc1F)c1ccccc1S2	nM	39.8
CC(C)NC(=O)c1ccc2c(c1)N=C(c1ccccc1Cl)c1ccccc1S2	nM	631
CCCCNC(=O)c1ccc2c(n1)N=C(c1ccccc1)c1ccccc1S2	nM	12.6
O=C(NCCC(F)(F)F)c1ccc2c(c1)N=C(c1ccc(F)cc1)c1ccccc1S2 [drawing 827]	nM	12.6
O=C(NCCC(F)(F)F)c1ccc2c(c1)N=C(c1ccc(Cl)cc1F)c1ccccc1S2 [drawing 667]	nM	6.31
CCCCC1=Nc2cc(C(=O)NC3CCN(C(=O)OCC)CC3)ccc2Sc2ccccc21	nM	501
CCCCNC(=O)c1ccc2c(c1)N=C(CCC)c1ccccc1S2	nM	25.1
O=C(NCc1cccnc1)c1ccc2c(c1)N=C(c1cccc(F)c1)c1ccccc1S2 [drawing 793]	nM	10
COCCNC(=O)c1ccc2c(c1)N=C(c1sccc1C)c1ccccc1S2	nM	63.1
O=C(NCc1ccccn1)c1ccc2c(c1)N=C(c1ccc(Cl)cc1)c1ccccc1S2 [drawing 1157]	nM	39.8
O=C(NN1CCCCCC1)c1ccc2c(c1)N=C(c1cccc(Cl)c1)c1ccccc1S2 [drawing 597]	nM	3.98
O=C(NCCc1ccc(Cl)cc1)c1ccc2c(c1)N=C(c1ccccc1)c1ccccc1S2 [drawing 733]	nM	7.94
O=C(NCc1ccc(F)cc1)c1ccc2c(c1)N=C(c1ccccc1F)c1ccccc1S2 [drawing 925]	nM	15.8
CCCC1=Nc2cc(C(=O)NCCCSC3CCCCC3)ccc2Sc2ccccc21	nM	158
